# Tested on: SR leukemia
# runDescription: NCI tumour cell line growth inhibition, 48 h
assayReadout: TGI

# molecule, assayReadout, value
rows = [
    ("CCCCCCCCCCCCOP(N)(=O)OCCCCCCCCCCCC", "TGI", "> 100 µM"),
    ("NS(=O)(=O)c1ccc(NNc2c3ccccc3nc3c(C(=O)Nc4ccc(S(=O)(=O)Nc5ncccn5)cc4)cccc23)cc1", "TGI", "> 25 µM"),
    ("Nc1[nH]c(=O)ncc1CO", "TGI", "> 100 µM"),
    ("O=C(c1ccco1)N(C(=S)OC12CC3CC(CC(C3)C1)C2)c1ccccc1", "TGI", "97.9 µM"),
    ("CC(C)C1(O)C(=O)N(c2c(F)c(F)c(F)c(F)c2F)C(=S)N1CCSc1ccccc1 (stereo not given)", "TGI", "43 µM"),
    ("CCOC(=O)C1(C(F)(F)F)N=C(CC)OC(N2CCOCC2)=N1 (stereo not given)", "TGI", "> 100 µM"),
    ("CC(=O)Oc1ccc(/C=N/NC(N)=S)nc1", "TGI", "> 100 µM"),
    ("CC(C)(C)C1CC[C@H](O)[C@H]([C@H](O)CC2CC(=O)N(c3ccccc3)C(=O)C2)C1 (stereo not given in full)", "TGI", "> 100 µM"),
    ("CC(NC(=O)c1ccccc1)(C(=O)O)C(=O)O", "TGI", "> 100 µM"),
    ("CCN(CC)CCN(C(=O)C(C)(C)C)c1ccccc1N", "TGI", "> 100 µM"),
    ("N#CC1C=Cc2ccccc2N1C(=O)Oc1ccccc1 (stereo not given)", "TGI", "> 100 µM"),
    ("CC1(C2CCC3(C)OC3C2)CO1 (stereo not given)", "TGI", "> 100 µM"),
    ("Cc1cc(C(O)CN(C)C)cc2c1ccc1cc(C(C)C)ccc12 (stereo not given)", "TGI", "5.21 µM"),
    ("Oc1ccc(Cl)cc1Cc1cc(Cl)ccc1O", "TGI", "35.8 µM"),
    ("Cc1ccc(NC(=O)CC(=O)N2N=C(N(CCC#N)c3cccc(C)c3)CC2c2ccccc2)cc1 (stereo not given)", "TGI", "> 100 µM"),
    ("O=C1c2ccccc2C(=O)N1c1nc(-c2ccc(Cl)cc2)cc(N2N=C(c3ccc(Br)cc3)CC2c2ccccc2)n1 (stereo not given)", "TGI", "2.42 µM"),
    ("NCCOCC(N)C(=O)O (stereo not given)", "TGI", "> 100 µM"),
    ("COc1ccc(OC)c2c3c(ccc12)C(c1ccccc1)OC3=O (stereo not given)", "TGI", "> 100 µM"),
    ("C#CCN(Cc1ccc2nc(N)[nH]c(=O)c2c1)c1ccc(C(=O)NC(CCC(=O)O)C(=O)O)cc1 (stereo not given)", "TGI", "> 100 µM"),
    ("CCOC(=O)C(=O)C(=O)NN(C)C1=NCCN1", "TGI", "> 100 µM"),
    ("CCOC(=O)c1cn(C)c(=S)n2c1nc1ccccc12", "TGI", "> 100 µM"),
    ("COc1cc2cc3c4c(cc(OC)c(OC)c4c2cc1OC)CCN3C(=O)CCC(=O)NCCCN(C)C", "TGI", "62 µM"),
    ("CN(C)C(=S)Oc1ccc2ccc(=O)oc2c1", "TGI", "> 100 µM"),
    ("COC(=O)[C@@H]1CN(C(=O)c2ccccc2)C(=O)N1C(=O)OCc1ccccc1", "TGI", "> 100 µM"),
    ("CCOC(=O)C1CCCCN1CCc1c[nH]c2ccccc12 (stereo not given)", "TGI", "> 100 µM"),
    ("CN1CCN(c2nc(-c3ccncc3)nc3sc4c(c23)CCCCCC4)CC1", "TGI", "12.2 µM"),
    ("Cn1c2ccccc2n2c3ncccc3c(=S)c(C#N)c12", "TGI", "> 100 µM"),
    ("CCOC(=O)C1COc2cc(-c3cc(=O)c4ccccc4o3)ccc2O1 (stereo not given)", "TGI", "> 100 µM"),
    ("C=CC1CN2CCC1CC2C(O)c1ccnc2ccccc12 (stereo not given)", "TGI", "> 100 µM"),
    ("C=C1C(=O)O[C@H]2[C@H]3O[C@@H](C[C@@H]12)[C@](C)(O)CC[C@@H]1O[C@@]1(C)CCC[C@H]3C", "TGI", "> 100 µM"),
    ("COc1cc([N+](=O)[O-])c2ncccc2c1[N+](=O)[O-]", "TGI", "> 100 µM"),
    ("COc1cccc(C2NC(=S)NC(C)=C2C(=O)Nc2ccc(Cl)c(Cl)c2)c1 (stereo not given)", "TGI", "> 50 µM"),
    ("CC1CC/C(=C\\c2ccc(Cl)cc2)c2nc(N)c(C#N)c(-c3ccc(Cl)cc3)c21 (stereo not given)", "TGI", "> 100 µM"),
    ("CC/C=C\\C/C=C\\C[C@H](O)C/C=C1/C(=O)C=C[C@@H]1C/C=C\\CCCC(=O)OC", "TGI", "1.87 µM"),
    ("COc1c(C)c(C/C=C(\\C)CC/C=C(\\C)CCC=C(C)C)c(OC)c(OC)c1OC", "TGI", "> 100 µM"),
]
